Values from ChEMBL document CHEMBL4425158

# measurement_target: UniProt Q12809
# Sequence (Q12809 whole entry): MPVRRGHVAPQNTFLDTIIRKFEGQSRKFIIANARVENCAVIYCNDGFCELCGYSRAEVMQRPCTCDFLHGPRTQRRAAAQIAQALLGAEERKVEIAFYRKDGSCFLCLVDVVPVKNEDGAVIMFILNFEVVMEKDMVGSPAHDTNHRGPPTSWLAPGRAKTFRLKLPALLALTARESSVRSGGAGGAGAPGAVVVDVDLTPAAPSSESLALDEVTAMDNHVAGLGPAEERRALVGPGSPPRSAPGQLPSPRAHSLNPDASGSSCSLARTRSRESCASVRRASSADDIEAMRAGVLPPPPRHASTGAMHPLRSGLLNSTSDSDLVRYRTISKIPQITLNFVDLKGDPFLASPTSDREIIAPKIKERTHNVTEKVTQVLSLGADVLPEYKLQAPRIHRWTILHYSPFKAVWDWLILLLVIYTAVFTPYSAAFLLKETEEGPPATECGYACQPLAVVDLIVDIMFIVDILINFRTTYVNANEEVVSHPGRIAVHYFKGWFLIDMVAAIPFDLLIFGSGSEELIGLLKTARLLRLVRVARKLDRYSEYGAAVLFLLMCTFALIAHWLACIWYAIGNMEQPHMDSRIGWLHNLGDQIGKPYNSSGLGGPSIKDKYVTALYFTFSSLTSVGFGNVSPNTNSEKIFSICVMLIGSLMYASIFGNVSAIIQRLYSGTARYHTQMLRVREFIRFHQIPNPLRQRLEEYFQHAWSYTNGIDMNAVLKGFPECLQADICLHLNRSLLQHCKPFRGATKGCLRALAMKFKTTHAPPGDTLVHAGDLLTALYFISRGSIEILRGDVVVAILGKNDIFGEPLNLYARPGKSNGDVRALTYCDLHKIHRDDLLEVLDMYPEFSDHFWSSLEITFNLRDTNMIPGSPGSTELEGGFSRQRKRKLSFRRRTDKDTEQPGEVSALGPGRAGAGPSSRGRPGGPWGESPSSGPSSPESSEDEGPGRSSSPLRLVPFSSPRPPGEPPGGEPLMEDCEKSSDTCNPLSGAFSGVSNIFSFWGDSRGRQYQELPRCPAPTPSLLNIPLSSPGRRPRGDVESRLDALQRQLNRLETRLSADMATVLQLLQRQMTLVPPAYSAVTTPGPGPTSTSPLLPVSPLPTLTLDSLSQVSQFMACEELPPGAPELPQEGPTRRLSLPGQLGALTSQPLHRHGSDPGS
pIC50: −log10 of the molar value.

smiles_entry | pIC50
O=C(c1cc(F)cc(Cl)c1)N1CCn2nc(-c3ccc(F)cn3)cc2C1 | 4.82

###

# assay_overview: Drug uptake in ICR mouse brain at 30 mg/kg, po after 1 hr by LC/MS/MS analysis
# Type: ADME, organism-based
# measurement_parameters: read-out: Drug uptake

smiles_entry | concentration at 1 h / µM
O=C(c1cc(F)cc(Cl)c1)N1CCn2nc(-c3ccc(F)cn3)cc2C1 | 29.5

###

# assay_overview: Half life in rat plasma at 1 mg/kg, iv after 5 mins to 24 hrs
# Assay type: ADME, organism-based
measure: half-life

smiles_entry | reported
O=C(c1cc(F)cc(Cl)c1)N1CCn2nc(-c3ccc(F)cn3)cc2C1 | 552 min

###

# assay_overview: Protein binding in ICR mouse brain at 30 mg/kg, po after 1 hr by LC/MS/MS analysis
# Format: ADME, organism-based
# measurement_parameters: read-out: PB (converted)

smiles_entry | fraction unbound at 1 h
O=C(c1cc(F)cc(Cl)c1)N1CCn2nc(-c3ccc(F)cn3)cc2C1 | 0.05

###

# assay_overview: Permeability of the compound at pH 7.4 by PAMPA
# Format: ADME
# measurement_parameters: read-out: permeability
measure: Papp

smiles_entry | measure | reported
O=C(c1cc(F)cc(Cl)c1)N1CCn2nc(-c3ccc(F)cn3)cc2C1 | Papp | 37 ×10⁻⁶ cm/s

###

# assay_overview: Metabolic stability in rat liver microsomes assessed as compound remaining at 1 uM after 30 mins in presence of NADPH by LC/MS/MS analysis
# Format: ADME, Microsome
# measurement_parameters: read-out: Stability
Each entry below lists one item and its recorded remaining at 0.5 h, 1 µM value.

smiles_entry | remaining at 0.5 h, 1 µM
O=C(c1cc(F)cc(Cl)c1)N1CCn2nc(-c3ccc(F)cn3)cc2C1 | > 97%
O=C(c1ccccc1)N1CCn2nc(-c3ccccn3)cc2C1 | 95%

###

# assay_overview: Cmax in rat plasma at 10 mg/kg, po after 15 mins to 24 hrs
# Assay type: ADME, organism-based
# Design: dose 10 mg/kg, route oral

smiles_entry | Cmax [ng/mL]
O=C(c1cc(F)cc(Cl)c1)N1CCn2nc(-c3ccc(F)cn3)cc2C1 | 2930

###

# measurement_target: Cytochrome P450 1A2 (Homo sapiens, UniProt P05177)
# Sequence (P05177 whole entry): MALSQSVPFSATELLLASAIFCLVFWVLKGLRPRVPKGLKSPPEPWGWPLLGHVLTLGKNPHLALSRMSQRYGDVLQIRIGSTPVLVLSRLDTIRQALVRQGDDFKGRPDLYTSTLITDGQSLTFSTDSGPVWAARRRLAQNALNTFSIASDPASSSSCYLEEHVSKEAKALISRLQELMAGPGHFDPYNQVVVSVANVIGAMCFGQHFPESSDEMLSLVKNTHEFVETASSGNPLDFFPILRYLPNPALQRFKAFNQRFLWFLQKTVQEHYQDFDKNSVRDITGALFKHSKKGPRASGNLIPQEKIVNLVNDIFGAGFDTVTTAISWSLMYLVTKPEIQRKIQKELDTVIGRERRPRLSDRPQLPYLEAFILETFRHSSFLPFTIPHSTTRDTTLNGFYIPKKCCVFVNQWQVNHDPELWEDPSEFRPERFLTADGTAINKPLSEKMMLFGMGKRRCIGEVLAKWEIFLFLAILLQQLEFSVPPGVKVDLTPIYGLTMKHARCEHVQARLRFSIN
pIC50: −log10 of the molar value.
measure: pIC50

smiles_entry | reported
O=C(c1ccccc1)N1CCn2nc(-c3ccccn3)cc2C1 | < 4.30

###

# assay_overview: Ratio of drug level in brain to plasma in ICR mouse at 30 mg/kg, po after 1 hr by LC/MS/MS analysis
# Format: ADME, organism-based
# measurement_parameters: read-out: BPR

smiles_entry | Kp at 1 h
O=C(c1cc(F)cc(Cl)c1)N1CCn2nc(-c3ccc(F)cn3)cc2C1 | 1.38

###

# assay_overview: Clearance in rat plasma at 1 mg/kg, iv after 5 mins to 24 hrs
# Format: ADME, organism-based
measure: clearance (mL/min/kg)

smiles_entry | reported
O=C(c1cc(F)cc(Cl)c1)N1CCn2nc(-c3ccc(F)cn3)cc2C1 | 2.3

###

# assay_overview: Volume of distribution in steady state in rat plasma at 1 mg/kg, iv after 5 mins to 24 hrs
# Type: ADME, organism-based
# measurement_parameters: read-out: Vdss

smiles_entry | Vd [L/kg]
O=C(c1cc(F)cc(Cl)c1)N1CCn2nc(-c3ccc(F)cn3)cc2C1 | 1.5
